- System: Acinetobacter baumannii ATCC17978
- test description: Minimal Inhibitory Concentration (MIC) assay
- Assay type: cell-based
- run conditions: Acinetobacter baumannii ATCC17978; CAMHB; 20 hours at 35±2° C.; lowest concentration that inhibits visible growth; read-out: ATCC 17978 MIC
observation type: MIC (µg/mL)

Example compounds with recorded MIC:
compound	MIC (µg/mL)
CNc1ccc(-n2cc(-c3cnc(C(=O)Nc4ccc(C(=O)N5CCN(C(=O)[C@@H]6CCNC[C@H]6O)CC5)c(Cl)c4)n3C)c(C(F)(F)F)n2)nc1.O=CO [Example D2]	1.12
Cc1nn(-c2ccc(N)cn2)cc1-c1cnc(C(=O)Nc2ccc(C(=O)N3CCN(C(=O)C4CCN(C)CC4)CC3)c(Cl)c2)n1C	38
CN1CCC(C(=O)N2CCN(C(=O)c3ccc(NC(=O)c4ncc(-c5cn(-c6ccc(N)nn6)nc5C(F)(F)F)n4C)cc3Cl)CC2)CC1	5.09

[1] COCCOc1ccc(-n2cc(-c3cnc(C(=O)Nc4ccc(C(=O)N5CCN(C(=O)C6CCNCC6)CC5)c(Cl)c4)n3C)c(C(F)(F)F)n2)nc1.O=CO
[2] COc1cnc(-n2cc(-c3cnc(C(=O)Nc4ccc(C(=O)N5CCN(C(=O)C6CCNCC6)CC5)c(Cl)c4)n3C)c(C(F)(F)F)n2)nc1.O=CO
stdin: Input pair: 1 , 2 . Output: entry with lower MIC. State the label of the item chosen.
stdout: 1
(1: 1.16 µg/mL, 2: 2.19 µg/mL)

[A] Cn1c(-c2cn(-c3ncccn3)nc2C(F)(F)F)cnc1C(=O)Nc1ccc(C(=O)N[C@H]2[C@@H]3CN(C(=O)C4CCNCC4)C[C@@H]32)c(Cl)c1.O=CO
[B] CN(C)c1ccnc(-n2ncc(-c3cnc(C(=O)Nc4ccc(C(=O)N5CCN(C(=O)C6CCNCC6)CC5)c(Cl)c4)n3C)c2C(F)(F)F)n1.O=C(O)C(F)(F)F
stdin: When their MIC values are compared, which is larger, A or B ? State the label of the item chosen.
stdout: A
(A: 4.41 µg/mL, B: 2.23 µg/mL)

[A] Cn1c(-c2cn(-c3ncccn3)nc2C(F)(F)F)cnc1C(=O)Nc1ccc(C(=O)N[C@H]2[C@@H]3CN(C(=O)[C@@H]4C[C@@H](O)CN4)C[C@@H]32)c(Cl)c1.O=CO
[B] CNc1ccc(-n2cc(-c3cnc(C(=O)Nc4ccc(C(=O)N5CCN(C(=O)C6(O)CCNCC6)CC5)c(Cl)c4)n3C)c(C(F)(F)F)n2)nc1.O=CO
[C] CCc1nn(-c2ccc(N)cn2)cc1-c1cnc(C(=O)Nc2ccc(C(=O)N3CCN(C(=O)C4CCN(C)CC4)CC3)c(Cl)c2)n1C
stdin: Sort the compounds on MIC; start with the lowest figure. Provide your answer as the labels ordered per the instruction.
stdout: B, A, C
(B: 1.16 µg/mL, A: 4.43 µg/mL, C: 16.5 µg/mL)
